test: ATG_SREBP_CIS: Attagene CIS-FACTORIAL HepG2 Assay for human Sterol Regulatory Element Binding (SREBP) (AID 2282962); settings: HepG2 Attagene cis-factorial SREBP reporter, mRNA; actives raise or lower the signal
Active and inactive are the calls of the source. The calls were made as follows: active = hit-call score of the fitted dose curve at least 0.9, where 1 is the maximum; inactive = score below 0.9.
parameter_measured: AC50

* C1CCC(SSC2CCCCC2)CC1 | 100 µM (active)
* CCCCCCCCCCCCCO | inactive
* C=CCOC(=O)c1ccccc1C(=O)OCC=C | inactive

====

read-out: TIMP metallopeptidase inhibitor 2 (TIMP2), TIMP2 (gene 7077); assay: BSK_KF3CT_TIMP2: BioMAP Diversity Plus: KF3CT Assay for TIMP metallopeptidase inhibitor 2 (TIMP2) Biomarker Activity (AID 2283071); settings: primary human keratinocytes with fibroblasts; actives raise or lower the signal
Calls of active or inactive are those of the source. The calls were made as follows: active = hit-call score of the fitted dose curve at least 0.9, where 1 is the maximum; inactive = score below 0.9.
Just give me one of these, please: active, inactive

Sample answers from the record:
• CCCCCCC(=O)OCC = inactive
• NCCO = inactive
• CCCCCCCCCCC = inactive
• Cc1ccccc1Cl = inactive
• CN[C@H]1CC[C@@H](c2ccc(Cl)c(Cl)c2)c2ccc(S(N)(=O)=O)cc21 = active
• COc1ccc(C)cc1N = inactive
• CCCCCCCCCCCCCCCCCC(=O)O = inactive
• CCOC(=O)CCC(=O)OCC = inactive

**Query** // param item: COc1cc(C=O)ccc1O ; yields the recorded call
**Result** inactive

**Query** Hi, sorry to bother you, what did the test record for C[Si]1(C)O[Si](C)(C)O[Si](C)(C)O[Si](C)(C)O1 ?
**Result** inactive

**Query** Hello, I am checking results. What call was entered for CC=Cc1ccc(O)c(OC)c1 ?
**Result** inactive

**Query** Please indicate how the test categorized COc1cc(S(=O)(=O)O)c(C)cc1N=Nc1c(O)ccc2cc(S(=O)(=O)O)ccc12 .
**Result** inactive

**Query** Please share the test call associated with Cc1cccc(C)c1O .
**Result** inactive

**Query** Look up the recorded call for Cc1cc(NC(=O)C(=O)O)cc(C)c1Oc1ccc(O)c2c1CCC2 in this test.
**Result** inactive

**Query** Tell me the recorded outcome of this test for O=c1c(O)c(-c2ccc(O)c(O)c2)oc2cc(O)cc(O)c12 .
**Result** active
